Molecular target: Progesterone receptor (Homo sapiens)
Experiment: qHTS assay to identify small molecule antagonists of the progesterone receptor (PR) signaling pathway (AID 1346795); also: potency is read from the fitted curve at half-maximal effect
Conditions: PR-UAS-bla HEK293T, beta-lactamase FRET ratio, 16 h; series mostly up to 92.4 µM
Results filed as inconclusive are left out. Active and inactive are the calls of the source. Calls follow the shape of the dose curve; as a rule, active = well fitted inhibition curve with a large enough effect in the signal ratio in the repeat runs (not every such curve was filed as active); inconclusive = weak or mixed curves; inactive = flat fitted curve, though single readings scatter; the % refers to the signal ratio.
testReadout: Potency

[
  {
    "lineNotation": "CCn1cc(C(=O)O)c(=O)c2cc(F)c(N3CCNCC3)cc21",
    "Potency": "inactive"
  },
  {
    "lineNotation": "O=c1c(O)c(-c2ccc(O)cc2)oc2cc(O)cc(O)c12",
    "Potency": "5.19 µM (active)"
  },
  {
    "lineNotation": "O=C(CCc1ccc(O)cc1)c1c(O)cc(O)cc1O",
    "Potency": "31.3 µM (active)"
  },
  {
    "lineNotation": "Oc1ccc(Cl)c2cccnc12",
    "Potency": "3.76 µM (active)"
  }
]

Form: molecule = O=C(CCCN1CC=C(n2c(=O)[nH]c3ccccc32)CC1)c1ccc(F)cc1 ; Potency = inactive

molecule CCCCCCCCOc1ccc(C(=O)O)cc1 , Potency observed: 48 µM (active)

====

Experiment: qHTS assay to identify small molecule agonists of the sonic hedgehog signaling (Shh) pathway - cell viability counter screen (AID 1259366); also: nearly all actives have a fitted effect of over 50% in size
Conditions: NIH/3T3 Gli1-Luc viability, CellTiter-Fluor, 24 h; series mostly up to 92.4 µM
Inconclusive results are not listed. Calls of active or inactive are those of the source. Calls follow the shape of the dose curve; as a rule, active = well fitted cell-killing curve with a large enough effect in the repeat runs; inconclusive = weak or mixed curves, or effect the other way; inactive = flat fitted curve, though single readings scatter.
Pick from T for active, F for inactive when you respond.

Status in this test for OCCN1CCN(CCCN2c3ccccc3Sc3ccc(Cl)cc32)CC1 ?
T

Identify the outcome logged in this assay for the molecule shown: CC1(C)O[C@@H]2C[C@H]3[C@@H]4C[C@H](F)C5=CC(=O)C=C[C@]5(C)[C@H]4[C@@H](O)C[C@]3(C)[C@]2(C(=O)CO)O1
F

Which outcome was assigned to O=C(Nc1cccc2c(=O)cc(-c3nn[nH]n3)oc12)c1ccc(OCCCCc2ccccc2)cc1 in this test?
F

Hi, do you know how CCCCCCCCOc1ccc(C(=O)O)cc1 came out in this test?
F

Identify the outcome logged in this assay for the molecule shown: COc1cc(Nc2c(C#N)cnc3cc(OCCCN4CCN(C)CC4)c(OC)cc23)c(Cl)cc1Cl
T

So what was the verdict on CCn1cc(C(=O)O)c(=O)c2cc(F)c(N3CCNCC3)cc21 in this test?
F

Could you please tell me the result logged for O=C1c2ccccc2C(=O)C1c1nc2ccccc2c(Br)c1O in this assay?
F

====

Test: qHTS assay for small molecule agonists of the antioxidant response element (ARE) signaling pathway - cell viability counter screen (AID 743203); also: nearly all actives have a fitted effect of over 55% in size
Settings: ARE-bla HepG2 viability, CellTiter-Glo luminescence, 16 h; series mostly up to 73.3 µM
Inconclusive results are not listed. Calls of active or inactive are those of the source. Calls come from the whole dose curve.
testReadout: outcome

[
  {
    "compound": "CC(C)=CCC/C(C)=C/CC/C(C)=C/CCC(=O)OC/C=C(\\C)CCC=C(C)C",
    "val": "inactive"
  },
  {
    "compound": "O=C(O)c1ccc(OCCCOc2ccc(C(=O)O)cc2)cc1",
    "val": "inactive"
  },
  {
    "compound": "CCCCCC[C@@H](O)C/C=C\\CCCCCCCC(=O)OCC(O)CO (stereo partly drawn)",
    "val": "inactive"
  }
]
